For each entry below, report its MIC80 value.
System: Candida albicans
METHOD DESCRIPTION: Potentiation of fluconazole-induced anti-fungal activity against fluconazole-resistant Candida albicans isolate 100 assessed as fluconazole MIC80 at 1 ug/ml by checkerboard microdilution assay
Type: functional
Kindly write the number and append the unit.

Incoming: Any idea what MIC80 was measured for `O=C(CCc1ccc2c(c1)OCO2)NCc1ccc(-c2ccccc2F)cc1` ?
Outgoing: 0.125 µg/mL

Incoming: Please look up its MIC80: `COc1ccc2cc3[n+](cc2c1OC)CCc1cc2c(cc1-3)OCO2`
Outgoing: 2 µg/mL

Incoming: Looking for the measured MIC80 of `Cc1ccc(-c2ccc(CNC(=O)CCc3ccc4c(c3)OCO4)cc2)cc1` , can you help?
Outgoing: 2 µg/mL

Incoming: Please report the recorded MIC80 for `O=C(CCc1ccc2c(c1)OCO2)NCc1ccc(-c2ccc(F)cc2)cc1` .
Outgoing: 0.25 µg/mL

====

System: Candida albicans
METHOD DESCRIPTION: Potentiation of fluconazole-induced anti-fungal activity against fluconazole-resistant Candida albicans isolate 103 assessed as fluconazole MIC80 at 4 ug/ml by checkerboard microdilution assay
Type: functional
MEASURED ATTRIBUTE: MIC80 (µg/mL)
Give just the number in µg/mL; leave the unit off.

Incoming: // query MIC80 value for entry `O=C(CCc1ccc2c(c1)OCO2)NCc1ccc(-c2ccc(F)cc2)cc1`
Outgoing: 0.125

Incoming: Quick check: MIC80 of `O=C(CCc1ccc2c(c1)OCO2)NCc1ccc(-c2ccccc2F)cc1` ?
Outgoing: 0.063

Incoming: Fill blank: measured MIC80 of the molecule `Cc1ccc(-c2ccc(CNC(=O)CCc3ccc4c(c3)OCO4)cc2)cc1` is ____.
Outgoing: 1

Incoming: Look up MIC80 for this molecule: COc1ccc2cc3[n+](cc2c1OC)CCc1cc2c(cc1-3)OCO2 [BERBERINE]
Outgoing: 1

====

Could you please report measured fractional inhibitory concentration index (FICI) for the items listed next?
Tested on: Candida albicans
METHOD DESCRIPTION: Potentiation of fluconazole-induced anti-fungal activity against fluconazole-resistant Candida albicans isolate 100 by two-fold dilution method
Format: functional

Incoming: Give the measured fractional inhibitory concentration index (FICI) of `COc1ccc(-c2ccc(CNC(=O)CCc3ccc4c(c3)OCO4)cc2)cc1` .
Outgoing: 0.064

Incoming: Param item = `O=C(CCc1ccc2c(c1)OCO2)NCc1ccc(-c2ccc(C(F)(F)F)cc2)cc1` ; retrieve measured fractional inhibitory concentration index (FICI).
Outgoing: 0.094

Incoming: Which value of fractional inhibitory concentration index (FICI) has been reported for `O=C(CCc1ccc2c(c1)OCO2)NCc1ccccc1-c1ccc(F)cc1` in the records?
Outgoing: 0.066

====

System: Candida albicans
METHOD DESCRIPTION: Synergistic anti-fungal activity against fluconazole-resistant Candida albicans isolate 103 in presence of fluconazole by two-fold dilution method
Assay type: functional
Response field label takes met when MIC80 is strictly below 1 µg/mL and not met in all other cases.

Incoming: Find out if reported MIC80 for `O=C(CCc1ccc2c(c1)OCO2)NCc1ccc(-c2ccc(F)cc2F)cc1` is less than 1 µg/mL
Outgoing: met

Incoming: Is MIC80 strictly under 1 µg/mL for the entry `N#Cc1ccc(-c2ccc(CNC(=O)CCc3ccc4c(c3)OCO4)cc2)cc1` ?
Outgoing: not met

Incoming: Consider the molecule `Cc1ccc(-c2cccc(CNC(=O)CCc3ccc4c(c3)OCO4)c2)cc1` . Is its MIC80 strictly less than 1 µg/mL?
Outgoing: not met

Incoming: In plain terms, does `O=C(CCc1ccc2c(c1)OCO2)NCc1ccc(-c2cccc(F)c2)cc1` come in under 1 µg/mL for MIC80?
Outgoing: met

Incoming: State whether 1 µg/mL exceeds MIC80 recorded for `O=C(CCc1ccc2c(c1)OCO2)NCc1ccccc1-c1ccc(F)cc1` .
Outgoing: met

Incoming: I'd appreciate it if you could check whether `O=C(CCc1ccc2c(c1)OCO2)NCc1ccc(-c2ccc(F)cc2)cc1` has MIC80 smaller than 1 µg/mL.
Outgoing: met

Incoming: Strictly below 1 µg/mL: is that where MIC80 of `O=C(CCc1ccc2c(c1)OCO2)NCc1ccc(-c2ccc(Cl)cc2)cc1` sits?
Outgoing: met

Incoming: Criterion: MIC80 strictly below 1 µg/mL. Is it met by `O=C(CCc1ccc2c(c1)OCO2)NCc1ccc(-c2ccc(C(F)(F)F)cc2)cc1` ?
Outgoing: not met

Incoming: # TODO verify MIC80 < 1 µg/mL strictly for this molecule: `O=C(CCc1ccc2c(c1)OCO2)NCc1cccc(Br)c1`
Outgoing: not met

Incoming: Does the reported MIC80 of `O=C(CCc1ccc2c(c1)OCO2)NCc1ccccc1F` stay below 1 µg/mL?
Outgoing: met

Incoming: I wonder whether `Cc1ccc(-c2ccc(CNC(=O)CCc3ccc4c(c3)OCO4)cc2)cc1` has MIC80 below 1 µg/mL. Can you tell?
Outgoing: met

Incoming: MIC80 strictly < 1 µg/mL for this molecule? `Cc1ccccc1CNC(=O)CCc1ccc2c(c1)OCO2`
Outgoing: met

Incoming: Hello, is MIC80 of the following molecule strictly smaller than 1 µg/mL? `O=C(CCc1ccc2c(c1)OCO2)NCc1ccc(-c2ccco2)cc1`
Outgoing: not met

Incoming: Strictly below 1 µg/mL in MIC80? `O=C(CCc1ccc2c(c1)OCO2)NCc1ccc(-c2ccncc2)cc1`
Outgoing: not met

Incoming: In plain terms, does `COc1ccc(-c2ccc(CNC(=O)CCc3ccc4c(c3)OCO4)cc2)cc1` come in under 1 µg/mL for MIC80?
Outgoing: met

Incoming: MIC80 strictly < 1 µg/mL for this molecule? `Cc1ccc(-c2ccccc2CNC(=O)CCc2ccc3c(c2)OCO3)cc1`
Outgoing: met

Incoming: Regarding `O=C(CCc1ccc2c(c1)OCO2)NCc1ccc(-c2ccsc2)cc1` , kindly confirm whether its MIC80 is beneath 1 µg/mL.
Outgoing: met

====

Test system: Candida albicans
METHOD DESCRIPTION: Potentiation of fluconazole-induced anti-fungal activity against fluconazole-resistant Candida albicans isolate 103 at 2 ug/ml by checkerboard microdilution assay
Format: functional
MEASURED ATTRIBUTE: fractional inhibitory concentration index (FICI)

Incoming: Value lookup for fractional inhibitory concentration index (FICI); key = COc1ccc2cc3[n+](cc2c1OC)CCc1cc2c(cc1-3)OCO2 [BERBERINE]
Outgoing: 0.039

Incoming: Could you tell me which fractional inhibitory concentration index (FICI) is on file for `O=C(CCc1ccc2c(c1)OCO2)NCc1ccc(-c2ccccc2F)cc1` ?
Outgoing: 0.017

Incoming: I would be grateful if you could share the reported fractional inhibitory concentration index (FICI) for `Cc1ccc(-c2ccc(CNC(=O)CCc3ccc4c(c3)OCO4)cc2)cc1` .
Outgoing: 0.023

Incoming: Using the record for `O=C(CCc1ccc2c(c1)OCO2)NCc1ccc(-c2ccc(F)cc2)cc1` , report its fractional inhibitory concentration index (FICI).
Outgoing: 0.018

====

Tested on: Candida albicans
METHOD DESCRIPTION: Potentiation of fluconazole-induced anti-fungal activity against fluconazole-resistant Candida albicans isolate 103 assessed as fluconazole MIC80 at 8 ug/ml by checkerboard microdilution assay
Assay type: functional
MEASURED ATTRIBUTE: MIC80
Note: a bare number is incomplete; add the unit.

Incoming: Please report the recorded MIC80 for `O=C(CCc1ccc2c(c1)OCO2)NCc1ccc(-c2ccccc2F)cc1` .
Outgoing: 0.031 µg/mL

Incoming: # get_value(readout='MIC80', item= `O=C(CCc1ccc2c(c1)OCO2)NCc1ccc(-c2ccc(F)cc2)cc1` )
Outgoing: 0.063 µg/mL

Incoming: Requested field: MIC80. Item: `Cc1ccc(-c2ccc(CNC(=O)CCc3ccc4c(c3)OCO4)cc2)cc1`
Outgoing: 0.063 µg/mL

Incoming: Could you tell me which MIC80 is on file for `COc1ccc2cc3[n+](cc2c1OC)CCc1cc2c(cc1-3)OCO2` ?
Outgoing: 1 µg/mL

====

Tested on: Candida albicans
METHOD DESCRIPTION: Potentiation of fluconazole-induced anti-fungal activity against fluconazole-resistant Candida albicans isolate 103 at 4 ug/ml by checkerboard microdilution assay
Assay type: functional
MEASURED ATTRIBUTE: fractional inhibitory concentration index (FICI)
Answer using only a numeral; do not append any unit.

Incoming: // map `O=C(CCc1ccc2c(c1)OCO2)NCc1ccc(-c2ccccc2F)cc1` to recorded fractional inhibitory concentration index (FICI) (system: Candida albicans)
Outgoing: 0.032

Incoming: Lab request: please report fractional inhibitory concentration index (FICI) under test system Candida albicans for `O=C(CCc1ccc2c(c1)OCO2)NCc1ccc(-c2ccc(F)cc2)cc1`
Outgoing: 0.032

Incoming: Any idea what fractional inhibitory concentration index (FICI) came out for `COc1ccc2cc3[n+](cc2c1OC)CCc1cc2c(cc1-3)OCO2` on Candida albicans?
Outgoing: 0.063

Incoming: Checklist item: fractional inhibitory concentration index (FICI) tested on Candida albicans, entry `Cc1ccc(-c2ccc(CNC(=O)CCc3ccc4c(c3)OCO4)cc2)cc1` , value?
Outgoing: 0.039
